format: in vivo, rabbit; details: New Zealand White, rabbit, plasma, po, 15 mg/kg
PARAMETER: MRT last (h)
Unit h implied. Number only.

Item `CC(=O)c1nn(CC(=O)N2C[C@H](F)C[C@H]2C(=O)Nc2cccc(Br)n2)c2ccc(-c3cnc(C)nc3)cc12` has what recorded MRT last?
4.01

====

type: in vivo, rabbit; conditions: Dutch Belted, rabbit, choroid/BrM/RPE, po, 15 mg/kg, MRTlast, DB rabbit, single oral dose 15 mg/kg, mean
PARAMETER: MRT last (h)
Unit h implied. Number only.

Item `CC(=O)c1nn(CC(=O)N2C[C@H](F)C[C@H]2C(=O)Nc2cccc(Br)n2)c2ccc(-c3cnc(C)nc3)cc12` has what recorded MRT last?
49.7

Reference for the values: paper PMC9624268
